Assay: Human HepG2 cell viability assay in 384 well format
Format: toxicity, cell-based
Set-up: dose 125 nL, time 70.5 hour; concentration not given beside the values
Conditions: HepG2 cells, read-out: Inhibition
We begin with a simple list: items and their reported cytotoxicity at 70.5 h.
observation type: cytotoxicity at 70.5 h (%)

CCOc1ccc(-n2ccc3nc(N4CCCC4)ncc3c2=O)cc1 : -2.37
OC1(CNCCCN2CCc3ccccc32)CCNC1 (stereo unspecified) : 22.2
COc1ccc(CN2CCC(O)(CN3CCCCC3)C2)c(C)c1 (stereo unspecified) : -1.76
CCN(CC)c1nc2sc(C(=O)NCC(=O)OC)cc2s1 : 19.9
Cc1cccc(C)c1OC1CN(Cc2cnc(-c3ccco3)nc2)C1 : -6.4
CC(=O)Nc1nc(C(=O)NCCOc2ccc(C)cc2)cs1 : 13.3

----------
Assay: Human HepG2 cell viability assay in 384 well format
Type: toxicity, cell-based
Set-up: dose 125 nL, time 70.5 hour; concentration not given beside the values
Details: HepG2 cells, read-out: Inhibition
We begin with a simple list: items and their reported cytotoxicity at 70.5 h.
observation type: cytotoxicity at 70.5 h (%)

CO[C@@H]1CO[C@@]2(CCN(C(=O)COc3ccccc3C)C2)C1 : -2.61
O=S(=O)(c1cccc(F)c1)N1C[C@@H]2CC[C@H](C1)N(Cc1ccccc1)C2 : -12.7
NCCN1CCC(c2nnc(Cn3ccnc3)n2C2CC2)CC1 : -3.91
O=C(Cc1ccsc1)N1CCC(c2ccncc2)CC1 : -13.6
Cc1ccoc1-c1nnc(CNC2CCCN(c3cccnn3)C2)o1 (stereo unspecified) : 12.6
O=C(Nc1nccs1)NC1CCN(Cc2ccccc2)C1 (stereo unspecified) : -8.23

----------
Test: Human HepG2 cell viability assay in 384 well format
Assay type: toxicity, cell-based
Set-up: dose 125 nL, time 70.5 hour; concentration not given beside the values
Settings: HepG2 cells, read-out: Inhibition
observation type: cytotoxicity at 70.5 h (%)

Cc1cnn(CC2CCCN2C(=O)c2csc(C3CC3)n2)c1 (stereo not drawn) : -0.994
COc1ccc(OCC(O)CN2CCN(c3nccs3)CC2)cc1 (stereo not drawn) : -2.04
CCCNC(=O)c1cc(-c2cnc(N3CCCC3)nc2)cn1C : 3.66
CC(C)CC(CC(C)C)NC(=O)c1ccn(C)c(=O)c1 : 1.9
Cn1nnc2c1CCN(C(=O)C1CCC1)C2COCCN1CCCC1 (stereo not drawn) : -2.83
c1ccc(CN2CCC(CNc3ncnc4c3CCNCC4)CC2)cc1 : 0.757
CCC1(CC)Cc2ccccc2-c2nc(NCCCO)[nH]c(=O)c21 : -14.8
O=C(c1cncc(N2CC[C@@]3(O)CCNC[C@H]3C2)n1)N1CCCC1 : -3.92
O=C(Nc1cccs1)NC(CCCO)c1ccccc1 (stereo not drawn) : -17.7
Cc1ccc(CNC2(Cc3cc(CC(C)C)on3)COC2)o1 : 9.27
NC1CCc2nc(-c3ccncc3)nc(Nc3cccc(F)c3)c2C1 (stereo not drawn) : 9.56
Cc1noc(C)c1CN1CCCC2(C1)CN(c1nncs1)CCO2 (stereo not drawn) : -7.2
CCc1nc(CN(C)C(=O)C2CC(=O)N(c3cccc(O)c3)C2)no1 (stereo not drawn) : 3.57
CCN(CC)C(=O)CN(C)C(=O)c1cccn1CCc1ccccc1 : -3.38
Cc1c(C(=O)NC(C)CC(=O)c2cccs2)cnn1C (stereo not drawn) : 19.6
Cc1ccoc1C(=O)N1CCOCC2(CCN(c3ncccn3)C2)C1 (stereo not drawn) : -11.7
COCc1ccc(C(=O)N2CCC(Oc3ccccc3OC)CC2)s1 : -15
Cc1n[nH]c(C)c1CN(C)C(C(=O)O)c1ccc2c(c1)OCO2 (stereo not drawn) : 6.84
CNc1cc(-c2ccncc2)ncn1 : 23.1
O=C(c1ccc(F)cc1F)N1C[C@H]2CC[C@@H]1CN(Cc1ccccc1)C2 : -2.62
CC/N=c1/c(NC(=O)C2CC2)c(O)oc2ccccc12 : 35.8
CCOCCCNC(=O)C1CCC(=O)N(CCc2ccc(Cl)cc2)C1 (stereo not drawn) : -7.25
CC(=O)N1CCN(c2cc(N3CCOCC3)cnn2)CC1 : 6.14
CCC[C@H]1CN(c2nc(CO)cs2)C[C@@H]1NC(=O)C1(COC)CC1 : 4.28
CCC(C)(CCO)NC(=O)c1ccon1 (stereo not drawn) : 24.8
Cc1cnc(N2CCC(c3ccccc3)CC2)nc1-c1ccnn1C : -6.13
Cc1ccc(CN2CCC[C@]3(C(=O)O)CN(CC4CC4)C[C@@H]3C2)s1 : -6.54
Cc1cc(N2CCCN(CCc3ccccc3)CC2)ccn1 : -5.44
Cc1nc(S(=O)(=O)N2CCCCc3ccccc32)cn1C : 9.73
Cc1ccc2nc(CN(Cc3ccc(C#N)cc3)C(C)C)cc(=O)n2c1 : 20.2
COc1ccc(CC(=O)N2CCC(c3nnc4n3CCC4)CC2)cc1F : -5.72
CCOCC(=O)N1C[C@@H]2CC[C@H](Oc3ccccc3)[C@@H]2C1 : -3.41
Cc1nnc(C2CCN(c3ccccc3)CC2)o1 : -9.47
c1cnc(N2CCCC3(CCN(CC4CC4)C3)C2)nc1 (stereo not drawn) : -6.19
CCc1cnc2c(c1NCc1ccc(OC)cc1)c(=O)n(C)c(=O)n2C : 3.22
Cn1cc(-c2cc(C(=O)N3CCOCC3)c3ccc(F)cc3n2)cn1 : 24.6
CCC(C(=O)NC1CCCCC1)n1ccc2ncccc2c1=O (stereo not drawn) : -11.8
CN1C(=O)C(c2cccnc2)CC12CCN(CCO)CC2 (stereo not drawn) : -0.847
O=C1NC2(CCc3ccccc31)CCN(C(=O)c1ccncc1)C2 (stereo not drawn) : -3.88
Cc1nc(C)n(CC2CCCN(CCOc3cccc(F)c3)C2)n1 (stereo not drawn) : 0.903
COc1c(CNC2CCOc3c(Cl)cccc32)c(C)nn1C (stereo not drawn) : 12.2
CN(C)CCNCC1CCOC(C)(C)C1 (stereo not drawn) : -10.1
CC(C)(C(N)=O)N1CCN(C(=O)c2ccn(-c3cccc(Cl)c3)n2)CC1 : -0.38
O=C(Cc1cccs1)N1CCOCC1c1ccccc1 (stereo not drawn) : 15.2
COCCn1cnnc1Cn1ccnc1-c1ccccc1C : 1.73
CCCC(C)(C)NC(=O)CCN1CCOC1=O : 0.72
C[C@]1(O)CCN(Cc2nccs2)C[C@@H]1Oc1cccc(F)c1 : -3.49
CNCC(=O)N1CCCC(c2ccnc(Nc3cnccn3)n2)C1 (stereo not drawn) : -9.17
